The entries below are paired with their reported IC50.
Biological target: full length active recombinant SYK enzyme (Homo sapiens, UniProt P43405)
Construct: full length active recombinant SYK enzyme (Millipore, Calif.)
Assay: Inhibition of Syk tyrosine phosphorylation activity (LANCE TR-FRET kinase assay)

Entry CC[C@H](Nc1nc(Nc2cccc(C)c2)c(C(N)=O)cc1F)C1(N)CC1 has what IC50?
100 to 1000 nM

====

Target: full length active recombinant SYK enzyme (Homo sapiens, UniProt P43405)
Construct: full length active recombinant SYK enzyme (Millipore, Calif.)
Assay: Inhibition of Syk tyrosine phosphorylation activity (LANCE TR-FRET kinase assay)
pIC50: −log10 of the molar value.
quantity-kind: pIC50

{"columns": ["molecule", "pIC50"],
 "data": [
  ["CCC[C@@H](Nc1nc(Nc2cc(C)ns2)c(C(N)=O)cc1F)C(N)=O [Example 202]", "7.00 to 8.00"],
  ["CC[C@H](CN)Nc1nc(Nc2cccc(-c3ncccn3)c2)c(C(N)=O)cc1F [Example 92]", "7.00 to 8.00"],
  ["NC(=O)c1cc(F)c(N[C@@H]2CCCC[C@@H]2N)nc1Nc1ccc2ncccc2c1 [Example 66]", "> 9.00"],
  ["NC(=O)c1ccc(N[C@@H]2CCCC[C@@H]2N)nc1Nc1cccnc1 [Example 180]", "8.00 to 9.00"],
  ["Cc1cc(Nc2nc(N[C@@H]3CCCC[C@@H]3N)c(F)cc2C(N)=O)ccn1 [Example 85]", "8.00 to 9.00"]
]}

What pIC50 value was documented for this molecule, NC(=O)c1cc(F)c(N[C@@H]2CCCC(F)(F)[C@@H]2N)nc1Nc1cccc2ncccc12 [Example 327] ?
6.00 to 7.00

====

Biological target: full length active recombinant SYK enzyme (Homo sapiens, UniProt P43405)
Construct: full length active recombinant SYK enzyme (Millipore, Calif.); purchased Millipore
Test: Inhibition of Syk tyrosine phosphorylation activity (LANCE TR-FRET kinase assay)
Type: biochemical
quantity-kind: IC50

{"columns": ["compound", "IC50"],
 "data": [
  ["CC(C)[C@H](CN)Nc1nc(Nc2ccc3ncccc3c2)c(C(N)=O)cc1C#N [Example 128]", "1 to 10 nM"],
  ["CC[C@@H](Nc1nc(Nc2cncc(C)c2)c(C(N)=O)cc1F)C(N)=O [Example 235]", "10 to 100 nM"],
  ["Cc1ccc(Nc2nc(N[C@@H]3CCOC[C@@H]3N)c(F)cc2C(N)=O)cc1 [Example 349]", "10 to 100 nM"],
  ["NC(=O)c1cc(F)c(N[C@@H]2CCCC[C@@H]2N)nc1Nc1ccc2scnc2c1 [Example 310]", "1 to 10 nM"]
]}

IC50 lookup needed for NC(=O)c1ccc(N[C@@H]2CCCC[C@@H]2N)nc1Nc1ccc2cnccc2c1 [Example 135] , thanks.
1 to 10 nM

What value of IC50 has been recorded for this entry: NC(=O)c1ccc(N[C@@H]2CCCC[C@@H]2N)nc1Nc1cnc2ncccc2c1 [Example 165]
1 to 10 nM

Looking for the measured IC50 of Cc1cc(Nc2cc(N[C@@H]3CCCC[C@@H]3N)c(F)cc2C(N)=O)sn1 [Example 21] , can you help?
10 to 100 nM

Given COC[C@H](N)CNc1ccc(C(N)=O)c(Nc2cccc(C)c2)n1 [Example 103] , state its recorded IC50.
100 to 1000 nM

Reported IC50 for CC[C@@H](Nc1cc(Nc2cc(C)ns2)c(C(N)=O)cc1F)C(N)=O [Example 26] : what is it?
10 to 100 nM
